target: PI5P4Kγ-WT (Homo sapiens); experiment: Thermal shift assay; conditions: read-out: ΔTm PI5P4Kγ WT, thermal shift, compound 63 μM
measurementName: ΔTm at 63 µM (°C)

CC(C)c1ccccc1-c1nc(NCc2ccccn2)c2c(ccn2C)n1 ... 6.9
FC(F)(F)c1ccccc1-c1nc(NCc2cnccn2)c2ccccc2n1 ... 6.1
c1ccc(-c2ccccc2-c2nc(NCc3ccccn3)c3ccccc3n2)cc1 ... 4.4
FC(F)(F)c1ccccc1-c1nc(NCc2ccccc2)c2ccccc2n1 ... 4.6
COc1ccc(-c2nc(NCc3ccccn3)c3ccccc3n2)cc1 ... 5.1

1: COc1ccccc1-c1nc(NCc2cccs2)c2ccccc2n1
2: COc1cccc(-c2nc(NCc3ccccn3)c3ccccc3n2)c1
3: FC(F)(F)c1ccccc1-c1nc(NCc2cccnc2)c2ccccc2n1
Exercise: rank_up(items): orders items by reported ΔTm at 63 µM in ascending numerical order. Sort and list the labels as requested.
Solution: 1, 3, 2
(1: 0.1 °C, 3: 1.4 °C, 2: 5.1 °C)

###

experiment: Chromatographic LogD (HPLC method); assay type: physicochemical; details: pH 7.4, read-out: mchrom log D7.4
measurementName: chromatographic logD

Cc1cnc(-c2ccccc2C(F)(F)F)nc1NCc1ccccn1 [Compound 35] ... 4.2
FC(F)(F)c1ccccc1-c1nc(NCc2cccs2)c2ccccc2n1 [Compound 1, NIH-12848, reference compound] ... 6.3
CC(C)c1ccccc1-c1nc(NCc2ccccn2)c2c(ccn2C)n1 [Compound 40] ... 4.5

A: CC(C)c1ccccc1-c1nc(NCc2ccccn2)c2ccccc2n1 [Compound 22]
B: FC(F)(F)c1ccccc1-c1nc(NCc2ccccn2)c2cccnc2n1 [Compound 38]
Exercise: Which item exceeds the other in chromatographic logD, A or B ? Returns: label corresponding to the selected item.
Solution: A
(A: 5.7, B: 3.2)

###

target: PI5P4Kγ-WT (Homo sapiens, UniProt Q8TBX8); experiment: Thermal shift assay; conditions: read-out: ΔTm PI5P4Kγ WT, thermal shift, compound 63 μM
measurementName: ΔTm at 63 µM (°C)

The examples below pair each entry with its known result.
CCc1ccccc1-c1nc(NCc2ccccn2)c2ccccc2n1 ... 4.9
CC(C)c1ccccc1-c1nc(NC(C)c2ccccn2)c2ccccc2n1 (stereo not drawn) ... 0.2
Cc1cnc(-c2ccccc2C(F)(F)F)nc1NCc1ccccn1 ... 3.9
c1ccc(-c2nc(NCc3cccs3)c3ccccc3n2)cc1 ... -1.1

P: N#Cc1ccccc1-c1nc(NCc2ccccn2)c2ccccc2n1
Q: FC(F)(F)c1ccc(-c2nc(NCc3ccccn3)c3ccccc3n2)cc1
R: FC(F)(F)c1ccccc1-c1nc(NCC2CCCCC2)c2ccccc2n1
S: Clc1ccc(-c2nc(NCc3cccs3)c3ccccc3n2)cc1
Exercise: rank_up(items): orders items by reported ΔTm at 63 µM in ascending numerical order. Sort and list the labels as requested.
Solution: S, R, Q, P

###

molecular target: PI5P4Kγ+ (Homo sapiens, UniProt Q8TBX8, D138G/D197E/E133P/E135D/E153T/E196G/G136S/G139A/N195G/S132L/S134N); construct: GST (N, cleaved yes); made in house; host or cells: E. coli BL21(DE3), pGEX6P; experiment: ADP-Glo inhibition assay; assay type: biochemical; details: ADP-Glo, mutant PI5P4Kγ+ construct; read-out: PI5P4Kγ+ pIC50 (converted)
measurementName: IC50 (µM)

Cc1nc(CN(C)c2ncnc3ccc(-c4ccc5c(c4)OCO5)cc23)cs1 [ML106, reference compound] ... 10

I: CC(C)c1ccccc1-c1nc(NCc2ncccc2O)c2ccccc2n1
II: CCc1ccccc1-c1nc(NCc2ccccn2)c2ccccc2n1
Exercise: Which item exceeds the other in IC50, I or II ? Returns: label corresponding to the selected item.
Solution: II
(II: 5.01 µM, I: 0.631 µM)

###

target: PI5P4Kγ+ (Homo sapiens, UniProt Q8TBX8, D138G/D197E/E133P/E135D/E153T/E196G/G136S/G139A/N195G/S132L/S134N); construct: GST (N, cleaved yes); made in house; host or cells: E. coli BL21(DE3), pGEX6P; assay: ADP-Glo inhibition assay; format: biochemical; details: ADP-Glo, mutant PI5P4Kγ+ construct; read-out: PI5P4Kγ+ pIC50 (converted)
measurementName: IC50 (µM)

CC(C)c1ccccc1-c1nc(NC(C)c2ccccn2)c2ccccc2n1 (stereo not drawn) ... 39.8
CC(C)c1ccccc1-c1nc(NCc2ccccn2)c2c(ccn2C)n1 ... 0.631

P: Fc1ccc(-c2nc(NCc3ccccn3)c3ccccc3n2)c(C(F)(F)F)c1
Q: FC(F)(F)c1ccccc1-c1nc(NCc2ccccc2)c2ccccc2n1
Exercise: Which item exceeds the other in IC50, P or Q ? Returns: label corresponding to the selected item.
Solution: Q

###

assay: Plasma protein binding; assay type: in vitro ADME; conditions: Mouse plasma protein binding; read-out: mPPB (converted)
measurementName: fraction unbound at 4 h, 10 µM

CC(C)c1ccccc1-c1nc(NCc2ccccn2)c2c(ccn2C)n1 [Compound 40] ... 0.01

P: Cc1cnc(-c2ccccc2C(F)(F)F)nc1NCc1ccccn1 [Compound 35]
Q: FC(F)(F)c1ccccc1-c1nc(NCc2ccccn2)c2cccnc2n1 [Compound 38]
Exercise: Which item exceeds the other in fraction unbound at 4 h, 10 µM, P or Q ? Returns: label corresponding to the selected item.
Solution: P

###

Target: PI5P4Kγ-WT (Homo sapiens)
Sequence (Q8TBX8 1-421): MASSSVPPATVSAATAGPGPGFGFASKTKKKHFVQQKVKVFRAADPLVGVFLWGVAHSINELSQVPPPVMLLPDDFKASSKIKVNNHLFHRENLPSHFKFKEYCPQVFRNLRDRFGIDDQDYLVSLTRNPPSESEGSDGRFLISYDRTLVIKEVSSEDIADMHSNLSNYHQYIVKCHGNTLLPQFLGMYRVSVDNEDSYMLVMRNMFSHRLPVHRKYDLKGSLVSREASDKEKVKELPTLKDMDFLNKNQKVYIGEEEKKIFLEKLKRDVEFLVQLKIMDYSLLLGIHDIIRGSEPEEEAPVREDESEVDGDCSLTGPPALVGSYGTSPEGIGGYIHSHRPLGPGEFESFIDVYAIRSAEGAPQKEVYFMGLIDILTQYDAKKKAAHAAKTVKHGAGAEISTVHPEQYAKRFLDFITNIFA
Each entry below carries its reported Kd.
Dear colleague, please return just the value in µM, with no unit written.

CC(C)c1ccccc1-c1nc(NCc2ccccn2)c2c(ccn2C)n1 [Compound 40] ... 0.068

Read the next record carefully.
Exercise: Consider the compound FC(F)(F)c1ccccc1-c1nc(NCc2cccs2)c2ccccc2n1 [Compound 1, NIH-12848, reference compound] tested on PI5P4Kγ-WT (Homo sapiens); state its Kd.
Solution: 4

###

molecular target: UniProtKB P78356; assay: ADP-Glo inhibition assay
Sequence (P78356 whole entry): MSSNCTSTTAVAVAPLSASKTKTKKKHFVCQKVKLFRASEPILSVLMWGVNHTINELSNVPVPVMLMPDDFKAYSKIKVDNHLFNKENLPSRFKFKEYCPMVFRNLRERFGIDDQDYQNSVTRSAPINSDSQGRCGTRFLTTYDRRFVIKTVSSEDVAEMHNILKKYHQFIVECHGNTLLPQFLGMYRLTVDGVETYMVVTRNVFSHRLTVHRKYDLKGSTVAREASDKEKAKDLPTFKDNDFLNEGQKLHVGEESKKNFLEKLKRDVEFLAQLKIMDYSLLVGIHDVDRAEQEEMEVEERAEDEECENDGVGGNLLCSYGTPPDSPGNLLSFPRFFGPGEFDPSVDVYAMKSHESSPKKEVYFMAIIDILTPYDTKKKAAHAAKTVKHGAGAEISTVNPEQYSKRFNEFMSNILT
pIC50: −log10 of the molar value.
measurementName: pIC50

Cn1nnnc1Sc1ncnc2scc(-c3cccc(S(C)(=O)=O)c3)c12 ... < 4.60

Exercise: Consider the compound CC(=O)c1c(C)c2cnc(Nc3ccc(N4CCNCC4)cn3)nc2n(C2CCCC2)c1=O [Palbociclib, reference compound] tested on UniProtKB P78356; state its pIC50.
Solution: < 4.60

###

target: PI5P4Kγ-WT (Homo sapiens, UniProt Q8TBX8); assay: Thermal shift assay; conditions: read-out: ΔTm PI5P4Kγ WT, thermal shift, compound 63 μM
measurementName: ΔTm at 63 µM (°C)

The examples below pair each entry with its known result.
FC(F)(F)c1cccc(-c2nc(NCc3ccccn3)c3ccccc3n2)c1 ... 1.3
Cc1ccccc1-c1nc(NCc2cccs2)c2ccccc2n1 ... 2.7
CC(C)c1ccccc1-c1nc(NCc2ncccc2O)c2ccccc2n1 ... 7

P: FC(F)(F)c1ccccc1-c1nc(NCc2ccccn2)c2ccccc2n1
Q: CN(C)c1ccccc1-c1nc(NCc2ccccn2)c2ccccc2n1
Exercise: Which item exceeds the other in ΔTm at 63 µM, P or Q ? Returns: label corresponding to the selected item.
Solution: P

###

target: PI5P4Kγ+ (Homo sapiens, UniProt Q8TBX8, D138G/D197E/E133P/E135D/E153T/E196G/G136S/G139A/N195G/S132L/S134N); construct: GST (N, cleaved yes); made in house; host or cells: E. coli BL21(DE3), pGEX6P; experiment: ADP-Glo inhibition assay; format: biochemical; details: ADP-Glo, mutant PI5P4Kγ+ construct; read-out: PI5P4Kγ+ pIC50 (converted)
measurementName: IC50 (µM)

CC(C)c1ccccc1-c1nc(NCc2ccccn2)c2cc(N)ccc2n1 [Compound 33] ... 0.316

a: FC(F)(F)c1ccccc1-c1nc(NCc2cnccn2)c2ccccc2n1 [Compound 13]
b: Cc1cnc(-c2ccccc2C(F)(F)F)nc1NCc1ccccn1 [Compound 35]
c: CC(C)c1ccccc1-c1nc(NCc2ccccn2)c2cc(Br)ccc2n1 [Compound 32]
Exercise: Sort the 3 compounds by IC50; largest first, smallest last. Sort and list the labels as requested.
Solution: b, a, c
(b: 10 µM, a: 3.16 µM, c: 0.2 µM)

a: FC(F)(F)c1ccccc1-c1nc(NCc2ccccn2)c2ccccc2n1 [Compound 14]
b: c1ccc(-c2ccccc2-c2nc(NCc3ccccn3)c3ccccc3n2)cc1 [Compound 25]
Exercise: Hey, which is lower on measured IC50, a or b ? Returns: label corresponding to the selected item.
Solution: a

// provenance: paper PMC9097471
